All values here come from paper PMC7764042.

Target: T1, recombinant human interferon beta-1a (human, UniProt P01574 22-187)
T1 construct: human interferon beta (interferon beta-1a), UniProt P01574; Pharmaceutical interferon beta-1a; also called IFN-β; Interferon-β; source: bought: Merck (Rebif), produced in CHO-K1 cells
Assay: SPR; IFN-β immobilised on ProteOn GLH chip by amine coupling; Ca^2+-loaded S100 as analyte (0.25–5 µM S100A1, 0.5–5 µM S100A4/A6, 5 µM other S100); 25 °C; 10 mM HEPES, 150 mM NaCl, 0.01% TWEEN 20, pH 7.4, 1 mM CaCl2; heterogeneous ligand model
Details: both partners purified
pKd: −log10 of the molar value.
Catalogue of pKd readings, one per entry.
Recorded Endpoint: pKd

| Binder | Recorded Endpoint | Assay Result |
| --- | --- | --- |
| recombinant human S100A14 (natural protein, UniProt Q9HCY8 1-104, looked up, human S100A14, Swiss-Prot Q9HCY8, gene cloned into pHUE between SacII and HindIII; Made as a ubiquitin-S100 chimera and cut with Usp2; also called S10AE; source: E. coli BL21(DE3)-RIL, purified (IMAC, Usp2 cleavage, second IMAC, gel filtration)) MGQCRSANAEDAQEFSDVERAIETLIKNFHQYSVEGGKETLTPSELRDLVTQQLPHLMPSNCGLEEKIANLGSCNDSKLEFRSFWELIGEAAKSVKLERPVRGH | pKd | ≤ 5.00 |
| recombinant human S100A7 (natural protein, UniProt P31151 1-101, looked up, human S100A7, Swiss-Prot P31151, gene cloned into pHUE between SacII and HindIII; Made as a ubiquitin-S100 chimera and cut with Usp2; also called S10A7; source: E. coli BL21(DE3)-RIL, purified (IMAC, Usp2 cleavage, anion exchange, gel filtration)) MSNTQAERSIIGMIDMFHKYTRRDDKIEKPSLLTMMKENFPNFLSACDKKGTNYLADVFEKKDKNEDKKIDFSEFLSLLGDIATDYHKQSHGAAPCSGGSQ | pKd | ≤ 5.00 |
| recombinant human S100A13 (natural protein, UniProt Q99584 1-98, looked up, human S100A13, Swiss-Prot Q99584, gene cloned into pET-11a between NdeI and BamHI; also called S10AD) MAAEPLTELEESIETVVTTFFTFARQEGRKDSLSVNEFKELVTQQLPHLLKDVGSLDEKMKSLDVNQDSELKFNEYWRLIGELAKEIRKKKDLKIRKK | pKd | ≤ 5.00 |
| recombinant human S100A8 (natural protein, UniProt P05109 1-93, looked up, human S100A8, Swiss-Prot P05109, gene cloned into pHUE between SacII and HindIII; Made as a ubiquitin-S100 chimera and cut with Usp2; also called S10A8; source: E. coli BL21(DE3)-RIL, purified (IMAC, Usp2 cleavage, anion exchange, gel filtration)) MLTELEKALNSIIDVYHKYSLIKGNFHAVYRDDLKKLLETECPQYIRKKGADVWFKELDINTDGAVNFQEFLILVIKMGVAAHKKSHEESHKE | pKd | ≤ 5.00 |
